Molecular target: T1, human NPRA (human, UniProt P16066 33-1061)
T1 sequence (looked up): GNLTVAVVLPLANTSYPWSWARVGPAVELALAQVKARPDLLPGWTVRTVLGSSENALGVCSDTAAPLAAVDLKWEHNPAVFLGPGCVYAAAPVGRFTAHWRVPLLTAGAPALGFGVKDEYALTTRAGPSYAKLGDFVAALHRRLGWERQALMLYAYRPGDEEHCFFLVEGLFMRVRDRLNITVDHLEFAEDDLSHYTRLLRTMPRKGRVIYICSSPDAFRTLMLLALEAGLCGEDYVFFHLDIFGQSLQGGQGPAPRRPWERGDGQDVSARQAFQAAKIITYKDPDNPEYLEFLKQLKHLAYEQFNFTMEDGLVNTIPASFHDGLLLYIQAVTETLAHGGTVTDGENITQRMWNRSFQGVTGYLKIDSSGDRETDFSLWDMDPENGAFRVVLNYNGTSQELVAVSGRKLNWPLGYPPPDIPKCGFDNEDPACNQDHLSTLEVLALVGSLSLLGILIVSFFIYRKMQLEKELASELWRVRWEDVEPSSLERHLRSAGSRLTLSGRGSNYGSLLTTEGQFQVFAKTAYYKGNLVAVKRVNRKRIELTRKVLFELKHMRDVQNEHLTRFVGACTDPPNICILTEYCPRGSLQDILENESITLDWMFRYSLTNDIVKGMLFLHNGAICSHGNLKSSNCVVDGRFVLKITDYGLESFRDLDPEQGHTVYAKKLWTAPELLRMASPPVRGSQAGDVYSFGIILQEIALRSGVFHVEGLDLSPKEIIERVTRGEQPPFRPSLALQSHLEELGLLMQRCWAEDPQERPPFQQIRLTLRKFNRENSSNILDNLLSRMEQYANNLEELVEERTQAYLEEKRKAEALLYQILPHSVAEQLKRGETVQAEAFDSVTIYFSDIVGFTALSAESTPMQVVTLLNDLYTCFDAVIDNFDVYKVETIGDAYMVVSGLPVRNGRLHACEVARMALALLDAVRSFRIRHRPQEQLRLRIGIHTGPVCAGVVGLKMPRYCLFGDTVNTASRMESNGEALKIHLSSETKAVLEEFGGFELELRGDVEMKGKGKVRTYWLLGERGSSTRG
Experiment: cell-based or functional assay
Numbered stars: 1 amine (or outer) side, 2 acyl side, 3 side chain; on linkers, the order of the positions; unused ones are H or OH. Bridge positions count the residues as written; N and C are the ends. Square brackets hold non-standard residues; d marks the D form. * marks the point of attachment. thioacetal = thioacetal linkage between two cysteines (intrachain bond at the bracketed Cys); C20 diacid = O=C(O)CCCCCCCCCCCCCCCCCCC(=O)*; γGlu = O=C(O)[C@H](CCC(=O)[*:2])N[*:1]; Orn = NCCC[C@H](N)C(=O)O
MEASURED QUANTITY: cGMP Assay (EC50, pM) w/Casein, hNPRA
# unit: pM | format: bare number

SXRRSSCFGKRIDRIGHYSGLGCPSFRHGSPSSGAPPPS (N-terminus acylated with HOOC-(CH2)18-CO-(γGlu)-; (AEEA)6 after EKEKEKG; 4Pal; thioacetal linkage between the two bracketed Cys; C-terminal amide) [HOOC-(CH2)18-CO-(γGlu)-EKEKEKG-(AEEA)6-S-4Pal-RRSS[CFGKRIDRIGHYSGLGC]PSFRHGSPSSGAPPPS-NH2] :: 621
SXRRSSCFGKRIDRIGHYSGLGCPSFRHGSPSSGAPPPS (N-terminus acylated with HOOC-(CH2)18-CO-(γGlu)-; PEG24 after EKEKEKG; 4Pal; thioacetal linkage between the two bracketed Cys; C-terminal amide) [HOOC-(CH2)18-CO-(γGlu)-EKEKEKG-PEG24-S-4Pal-RRSS[CFGKRIDRIGHYSGLGC]PSFRHGSPSSGAPPPS-NH2] :: 726

[ask] // returns reported cGMP Assay (EC50, pM) w/Casein, hNPRA for input {C20 diacid-γGlu}-EKEKEKGEKPRSSCFGKRIDRIG[Orn]YSGLGCPSFRHGSPSSGAPPPS-NH2 (bridge 14-30 via thioacetal) [HOOC-(CH2)18-CO-(γGlu)-EKEKEKGEKPRSS[CFGKRIDRIG-Orn-YSGLGC]PSFRHGSPSSGAPPPS-NH2]
[reply] 497
